The measurements presented in this section are drawn from patent US20260294922A1.

- Subject of test: JNK1 (Homo sapiens, UniProt P45983)
- Sequence (P45983 whole entry): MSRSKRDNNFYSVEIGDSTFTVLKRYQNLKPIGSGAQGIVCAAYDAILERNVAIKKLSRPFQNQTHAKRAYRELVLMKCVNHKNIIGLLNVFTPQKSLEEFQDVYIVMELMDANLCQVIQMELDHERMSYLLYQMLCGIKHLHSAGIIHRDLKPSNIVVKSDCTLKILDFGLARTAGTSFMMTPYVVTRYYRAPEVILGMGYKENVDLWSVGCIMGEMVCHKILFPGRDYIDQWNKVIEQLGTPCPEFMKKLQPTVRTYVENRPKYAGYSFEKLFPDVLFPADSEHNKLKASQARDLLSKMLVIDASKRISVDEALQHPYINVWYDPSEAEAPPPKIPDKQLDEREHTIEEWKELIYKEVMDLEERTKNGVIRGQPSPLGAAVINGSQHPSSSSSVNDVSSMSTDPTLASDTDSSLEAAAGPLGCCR
- Test method notes: ThermoFisher SelectScreen, JNK1
- Type: binding
Readout kind: Kd (nM)
Numbers only, in nM.

Need Kd, item CN(C)C(=O)c1cc(NC(=O)c2cc3c(-c4cnc5[nH]ccc5c4)cccc3s2)ccc1O [CDD-2728]
1

---

- Subject of test: UniProt P53779
- Sequence (P53779 whole entry): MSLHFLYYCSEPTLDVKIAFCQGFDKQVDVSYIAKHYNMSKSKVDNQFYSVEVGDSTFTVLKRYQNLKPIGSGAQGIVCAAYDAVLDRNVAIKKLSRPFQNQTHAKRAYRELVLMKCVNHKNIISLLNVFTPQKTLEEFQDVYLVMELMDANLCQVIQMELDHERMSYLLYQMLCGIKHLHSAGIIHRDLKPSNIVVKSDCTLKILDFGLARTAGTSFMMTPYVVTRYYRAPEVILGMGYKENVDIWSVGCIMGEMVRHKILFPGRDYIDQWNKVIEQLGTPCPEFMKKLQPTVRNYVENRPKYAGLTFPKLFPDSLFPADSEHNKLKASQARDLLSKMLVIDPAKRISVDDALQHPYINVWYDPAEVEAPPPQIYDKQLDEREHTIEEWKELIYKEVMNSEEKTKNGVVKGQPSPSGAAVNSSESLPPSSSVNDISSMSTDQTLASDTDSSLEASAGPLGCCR
- Test method notes: ThermoFisher SelectScreen, JNK3
- Format: binding
Readout kind: Kd (nM)
Give bare numbers, in nM.

In [3]: df
Out[3]:
                              sample_smiles  readout_kind  units_of_measure  recorded_measurement
0  COc1ccc(NC(=O)c2cc3c(-c4cnc5[nH]ccc5c4)cccc3s2)cc1C(=O)N1CCCCC1            Kd                nM                  1.41

Provide Kd for all items below, preserving their order.
1. CNCc1ccc(NC(=O)c2ccn3ncc(-c4cnc5[nH]ccc5c4)c3c2)cc1
2. CNCc1ccc(NC(=O)c2ccn3ncc(-c4cnc(N)nc4)c3c2)cc1
3. CNCc1ccc(NC(=O)c2ccn3ncc(-c4cncc5ccccc45)c3c2)cc1
4. O=C(Nc1ccc(F)cc1)c1ccn2ncc(-c3cnc4[nH]ccc4c3)c2c1
5. CN(C)Cc1ccc(NC(=O)c2ccn3ncc(-c4cnc5[nH]ccc5c4)c3c2)cc1

1: 0.65; 2: 8.4; 3: 1.38; 4: 4.34; 5: 0.45

---

- Subject of test: JNK2 (Homo sapiens, UniProt P45984)
- Sequence (P45984 whole entry): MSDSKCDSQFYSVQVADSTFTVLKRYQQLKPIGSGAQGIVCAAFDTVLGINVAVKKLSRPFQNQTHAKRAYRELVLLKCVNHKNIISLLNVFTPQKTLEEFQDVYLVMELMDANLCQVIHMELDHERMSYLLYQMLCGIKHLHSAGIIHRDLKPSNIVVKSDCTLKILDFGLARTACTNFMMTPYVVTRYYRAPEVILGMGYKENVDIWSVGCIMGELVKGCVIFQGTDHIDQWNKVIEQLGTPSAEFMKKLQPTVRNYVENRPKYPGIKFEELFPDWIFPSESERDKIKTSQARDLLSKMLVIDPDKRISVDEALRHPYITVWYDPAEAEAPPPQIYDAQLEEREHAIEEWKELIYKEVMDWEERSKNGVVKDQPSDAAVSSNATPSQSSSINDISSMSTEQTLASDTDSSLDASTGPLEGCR
- Test method notes: JNK2 kinase (intrinsic ATPase, Kinase-Glo) assay
- Format: biochemical
- Experimental context: Table 3a; read-out: Kd JNK2
Kd strictly under 5 nM means yes (1); at 5 nM or over means no (0).

hey, is Kd for O=C(Nc1ccc(F)cc1)c1ccn2ncc(-c3cnc4[nH]ccc4c3)c2c1 lower than 5 nM or not?
yes (1)

hey, is Kd for O=C(Nc1ccc(O)c(C(=O)NCC2CC2)c1)c1cc2c(-c3cnc4[nH]ccc4c3)cccc2s1 lower than 5 nM or not?
no (0)

hey, is Kd for CN(C)C(=O)c1cc(NC(=O)c2cc3c(-c4cnc5[nH]ccc5c4)cccc3s2)ccc1C(F)(F)F lower than 5 nM or not?
no (0)

hey, is Kd for Cc1ccc(NC(=O)c2cc3c(-c4cnc5[nH]ccc5c4)cccc3s2)cc1C(=O)N(C)C lower than 5 nM or not?
no (0)

hey, is Kd for CNCc1ccc(NC(=O)c2cc3c(-c4cnc5[nH]ccc5c4)cccc3s2)cc1 lower than 5 nM or not?
yes (1)

hey, is Kd for CNC(=O)c1cc2c(-c3cnc4[nH]ccc4c3)cccc2s1 lower than 5 nM or not?
no (0)

hey, is Kd for CCN(CC)Cc1cc(NC(=O)c2cc3c(-c4cnc5[nH]ccc5c4)cccc3s2)ccc1O lower than 5 nM or not?
yes (1)

hey, is Kd for CN(C)C(=O)c1cc(O)cc(NC(=O)c2cc3c(-c4cnc5[nH]ccc5c4)cccc3s2)c1 lower than 5 nM or not?
yes (1)

---

- Subject of test: UniProtKB P45985
- Sequence (P45985 1-399): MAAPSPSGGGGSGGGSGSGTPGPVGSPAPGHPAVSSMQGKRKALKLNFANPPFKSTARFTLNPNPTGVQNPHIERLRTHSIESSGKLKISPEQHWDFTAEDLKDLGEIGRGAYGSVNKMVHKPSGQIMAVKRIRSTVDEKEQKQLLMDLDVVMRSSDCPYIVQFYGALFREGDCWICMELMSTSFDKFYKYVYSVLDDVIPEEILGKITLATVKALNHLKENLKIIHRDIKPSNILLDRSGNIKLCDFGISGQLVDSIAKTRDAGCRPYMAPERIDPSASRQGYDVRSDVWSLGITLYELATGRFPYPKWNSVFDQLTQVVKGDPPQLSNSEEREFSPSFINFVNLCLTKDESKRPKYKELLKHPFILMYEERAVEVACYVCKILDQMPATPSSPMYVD
Readout kind: Kd

                              sample_smiles   subject_of_test  recorded_measurement
0  COc1ccc(NC(=O)c2cc3c(-c4cnc5[nH]ccc5c4)cccc3s2)cc1C(=O)N1CCCCC1  UniProtKB P45985               60.2 nM

Lab note: next compound to report on.
Need Kd, item CNCc1ccc(NC(=O)c2ccn3ncc(-c4cnc(N)nc4)c3c2)cc1
262 nM
